Data provenance is patent US20040157821A1.

Assay: acceleration stability test at 40° C. of crystals filled into vials (residue rate, appearance)
Type: physicochemical
Conditions: 40° C., vial, 1 month
Counter-ions that a name gives are not always drawn.
outcome.measure: residue rate (%)
The reply should be a number in %, with the unit left off.

molecule	measurement.units	residue rate (%)
CCO/N=C(\C(=O)N[C@@H]1C(=O)N2C(C(=O)[O-])=C(C[n+]3cccc4c3NCN4CCCNC)CS[C@H]12)c1nsc(N)n1 [Example 10]	%	98.5
CCO/N=C(\C(=O)N[C@@H]1C(=O)N2C(C(=O)[O-])=C(C[n+]3cccc4c3NCN4CCCNC)CS[C@H]12)c1nsc(N)n1 [Example 6(1)]	%	99.6
CCO/N=C(\C(=O)N[C@@H]1C(=O)N2C(C(=O)[O-])=C(C[n+]3cccc4c3ncn4CCCNC)CS[C@H]12)c1nsc(N)n1 [hydrochloride, reference compound]	%	94.8

Param item = CCO/N=C(\C(=O)N[C@@H]1C(=O)N2C(C(=O)[O-])=C(C[n+]3cccc4c3NCN4CCCNC)CS[C@H]12)c1nsc(N)n1 [Example 6(2)] ; retrieve measured residue rate (%). 99.0

* * *

Experiment: turbidity / appearance of an aqueous solution containing the crystal
Format: physicochemical
Conditions: aqueous solution, absorbance 600 nm, initial
Structures can show the parent of a compound that is named as a salt.
outcome.measure: turbidity Abs(600 nm)
Lab note: jot down the number only; don't add units.

For orientation, consider the following solved cases.
molecule	reading
CCO/N=C(\C(=O)N[C@@H]1C(=O)N2C(C(=O)[O-])=C(C[n+]3cccc4c3NCN4CCCNC)CS[C@H]12)c1nsc(N)n1 [Example 10]	0.002
CCO/N=C(\C(=O)N[C@@H]1C(=O)N2C(C(=O)[O-])=C(C[n+]3cccc4c3ncn4CCCNC)CS[C@H]12)c1nsc(N)n1 [hydrochloride, reference compound]	0.001
CCO/N=C(\C(=O)N[C@@H]1C(=O)N2C(C(=O)[O-])=C(C[n+]3cccc4c3NCN4CCCNC)CS[C@H]12)c1nsc(N)n1 [Example 6(2)]	0.006

We next turn to a different molecule, shown below.
Param item = CCO/N=C(\C(=O)N[C@@H]1C(=O)N2C(C(=O)[O-])=C(C[n+]3cccc4c3NCN4CCCNC)CS[C@H]12)c1nsc(N)n1 [Example 6(1)] ; retrieve measured turbidity Abs(600 nm). 0.000

* * *

Assay: turbidity / appearance of an aqueous solution containing the crystal
Type: physicochemical
Conditions: aqueous solution, absorbance 600 nm, after 1 month at 40° C.
Experimental: The crystals obtained in the above examples were filled into vials and the residue rate thereof was examined through the acceleration stability test at 40° C. Further, the turbidity of an aqueous solution containing the crystal was determined. The monosulfate crystal of compound (I) obtained in Example 9 was filled into vials and the residue rate thereof was examined through the acceleration stability test at 40° C. Further, the turbidity was determined. […]
Counter-ions that a name gives are not always drawn.
Listed here are molecules together with their documented turbidity Abs(600 nm).
Lab note: jot down the number only; don't add units.

molecule	turbidity Abs(600 nm)
CCO/N=C(\C(=O)N[C@@H]1C(=O)N2C(C(=O)[O-])=C(C[n+]3cccc4c3NCN4CCCNC)CS[C@H]12)c1nsc(N)n1 [Example 6(2)]	0.007
CCO/N=C(\C(=O)N[C@@H]1C(=O)N2C(C(=O)[O-])=C(C[n+]3cccc4c3NCN4CCCNC)CS[C@H]12)c1nsc(N)n1 [Example 6(1)]	0.011
CCO/N=C(\C(=O)N[C@@H]1C(=O)N2C(C(=O)[O-])=C(C[n+]3cccc4c3NCN4CCCNC)CS[C@H]12)c1nsc(N)n1 [Example 10]	0.002

We next turn to a different molecule, shown below.
Param item = CCO/N=C(\C(=O)N[C@@H]1C(=O)N2C(C(=O)[O-])=C(C[n+]3cccc4c3ncn4CCCNC)CS[C@H]12)c1nsc(N)n1 [hydrochloride, reference compound] ; retrieve measured turbidity Abs(600 nm). 0.565

* * *

Test: acceleration stability test at 40° C. of crystals filled into vials (residue rate, appearance)
Format: physicochemical
Conditions: 40° C., vial, initial
Structures can show the parent of a compound that is named as a salt.

molecule	appearance (of powder)
CCO/N=C(\C(=O)N[C@@H]1C(=O)N2C(C(=O)[O-])=C(C[n+]3cccc4c3NCN4CCCNC)CS[C@H]12)c1nsc(N)n1 [Example 6(2)]	white
CCO/N=C(\C(=O)N[C@@H]1C(=O)N2C(C(=O)[O-])=C(C[n+]3cccc4c3NCN4CCCNC)CS[C@H]12)c1nsc(N)n1 [Example 6(1)]	white
CCO/N=C(\C(=O)N[C@@H]1C(=O)N2C(C(=O)[O-])=C(C[n+]3cccc4c3ncn4CCCNC)CS[C@H]12)c1nsc(N)n1 [hydrochloride, reference compound]	pale
